Target: T1, TPR domain (residues 166–330) of human AIP (aryl hydrocarbon receptor interacting protein), wild type (human, UniProt O00170 166-330)
T1 construct: Residues Asp 172 to Arg 325 were visible in the TOMM20 peptide structure; also called AIP TPR-domain; WT
T1 sequence (looked up): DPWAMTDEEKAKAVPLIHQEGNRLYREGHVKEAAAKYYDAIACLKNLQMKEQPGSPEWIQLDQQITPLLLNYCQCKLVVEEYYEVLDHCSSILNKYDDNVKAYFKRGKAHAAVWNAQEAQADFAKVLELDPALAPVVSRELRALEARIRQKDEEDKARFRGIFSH
Test: ITC; twenty 1.9 µL aliquots of peptide (350 to 600 µM) injected into 30 µM AIP TPR-domain; 20 mM Tris pH 7.5, 5 mM NaCl, 30°C
Conditions: both partners purified
property-label: pKd
One number for each entry, as −log10 of the molar value.

Recorded pKd, per entry:
binder	test-value
TLEELDW (also called TLEELDW (hPDE4A5); PDE4A5 peptide) [TLEELDW peptide (PDE4A5)]	4.19
DDTSRMEEVD (extreme C-terminus of human HSP90α) [DDTSRMEEVD peptide (human HSP90α C-terminus)]	5.02

For each of the binders below, state pKd.
1. MEEVD (extreme C-terminal five residues of HSP90; also called MEEVD (HSP90)) [MEEVD peptide (HSP90)]
2. GSGPTIEEVD (C-terminus of human HSP70; also called HSP70 peptide) [GSGPTIEEVD peptide (human HSP70 C-terminus)]

Reply:
4.90
4.74

Sure, the documented pKd for AQSLAEDDVE (extreme C-terminus of human TOMM20; Only AEDDVE was visible in the crystal structure) [AQSLAEDDVE peptide (human TOMM20 C-terminus)] is 4.91
